Origin of the recorded values: the RNAGym collection of RNA variant scans (doi:10.1002/anie.201605470)

B1: Osa-1-4 twister ribozyme (parent)
chain: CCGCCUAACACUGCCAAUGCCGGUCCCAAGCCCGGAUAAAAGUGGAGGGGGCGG

variants of: B1; test: self-cleavage, relative activity (ratio to wild type); higher = more cleavage; co-transcriptional
Value Type: self-cleavage

C26G G35C :: 0.07
C15A C21G :: 0.07
C14U G47A :: 0.07
A39U G42U :: 0.07
